# system.under.test: T1, Cbx7.V1 D9Q back-mutant (human, UniProt O95931 7-66, E8D (printed as the back-mutation D8E) | V10I (printed as the back-mutation …))
# T1 construct: chromodomain of human Cbx7, UniProt O95931; Cbx7.V1 with residue 9 back to the wild type; source: E. coli BL21(DE3), purified (Ni-NTA)
# T1 sequence: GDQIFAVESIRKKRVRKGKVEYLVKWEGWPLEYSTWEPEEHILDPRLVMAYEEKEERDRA
# method: BLI; biotinylated peptides immobilised on streptavidin biosensor tips (Octet HTX); chromodomains in solution at 5 or 1 µM; 25 °C; 25 mM HEPES pH 7.0, 150 mM NaCl, 1 mg/ml BSA, 0.01% Tween-20; steady-state fit, Langmuir model
# measurement.setup: both partners purified
assay.endpoint: pKd
The value called pKd is obtained by taking minus log10 of the concentration in mol/L.

QUERY: Return pKd for the following binder: KQLATKAARKSAPATGGVK (trimethyl-lysine at K27; biotin followed by an aminohexanoic acid linker at the N-terminus) [H3K27me3 peptide, N-terminal biotin]
RESULT: 5.70

The reported numbers originate from paper PMC9666628.
